Readings of self-splicing fitness (ln) for the listed sequences
assay_procedure: self-splicing fitness, log relative to wild type (ln ratio); higher = more splicing; Tetrahymena group I intron in knt gene, E. coli kanamycin selection, DiMSum; sequences stand for … in CUCUCU…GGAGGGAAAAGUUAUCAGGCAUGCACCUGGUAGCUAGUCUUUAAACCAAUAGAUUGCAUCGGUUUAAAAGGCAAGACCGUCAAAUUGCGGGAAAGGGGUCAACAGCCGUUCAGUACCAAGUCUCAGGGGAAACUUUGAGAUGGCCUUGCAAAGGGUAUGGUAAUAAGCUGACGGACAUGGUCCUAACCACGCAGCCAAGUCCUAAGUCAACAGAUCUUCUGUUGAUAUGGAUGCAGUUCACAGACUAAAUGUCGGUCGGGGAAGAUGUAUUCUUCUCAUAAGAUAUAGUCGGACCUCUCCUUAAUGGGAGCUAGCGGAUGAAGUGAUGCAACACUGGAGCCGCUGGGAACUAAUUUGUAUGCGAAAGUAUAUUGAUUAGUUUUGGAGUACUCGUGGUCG;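 further: selection with 25 µg/mL kanamycin versus none on LB agar overnight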
stated_conditions: 30 °C

seq_string	self-splicing fitness (ln)
CGUAAGCAAUAUUACGGGGA	-3.42

Query: Param item = GGAGAGCAAUAUUACGCUUA ; retrieve measured self-splicing fitness (ln).
Result: -2.12

Query: Quick one: AACGAGCAAUAUUACGCCAG
Result: -4.01

Query: Also check GUGGAGCAAUAUUACGUAAC
Result: -0.784

* * *

assay_procedure: self-splicing fitness, log relative to wild type (ln ratio); higher = more splicing; Tetrahymena group I intron in knt gene, E. coli kanamycin selection, DiMSum; sequences stand for … in CUCUCU…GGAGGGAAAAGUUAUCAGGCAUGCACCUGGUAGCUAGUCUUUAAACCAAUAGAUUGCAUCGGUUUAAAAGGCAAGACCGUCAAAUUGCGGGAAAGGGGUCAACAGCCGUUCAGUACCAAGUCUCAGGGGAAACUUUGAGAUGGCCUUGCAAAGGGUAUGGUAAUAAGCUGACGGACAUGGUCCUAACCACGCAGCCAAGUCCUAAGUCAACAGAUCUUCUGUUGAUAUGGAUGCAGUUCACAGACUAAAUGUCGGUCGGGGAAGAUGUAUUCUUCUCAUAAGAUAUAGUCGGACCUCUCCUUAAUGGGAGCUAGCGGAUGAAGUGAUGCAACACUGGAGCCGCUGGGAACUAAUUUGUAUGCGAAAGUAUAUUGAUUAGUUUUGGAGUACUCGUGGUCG
stated_conditions: 37 °C
Classify by measured self-splicing fitness (ln): yes if it is equal to or exceeds -2, no if it is smaller.

Example entries begin here.
seq_string	label_value
UUAGAGCAAUAUUACGAAGG	yes
AUAAAGCAAUAUUACGUCUU	yes
GACCAGCAAUAUUACGAUAU	yes
UAGAAGCAAUAUUACGCGAG	yes

Query: Answer whether self-splicing fitness (ln) of ACAUAGCAAUAUUACGGUGA is greater than or equal to -2.
Result: yes

Query: Next record, please: ACGUAGCAAUAUUACGCCAU
Result: no

Query: What do you get for UCGGAGCAAUAUUACGCACA ?
Result: no

Query: Entry GCGCAGCAAUAUUACGAGGA please
Result: yes

Query: Try the sequence AAUAAGCAAUAUUACGAGAA
Result: yes

Query: Also, AUCCAGCAAUAUUACGCCCU please.
Result: yes

Query: Then what about the sequence AUAGAGCAAUAUUACGGGGU ?
Result: no

Query: Now try GGUUAGCAAUAUUACGGCUG .
Result: yes

Query: Please answer likewise for AACAAGCAAUAUUACGGAUU
Result: yes

* * *

assay_procedure: self-splicing fitness, log relative to wild type (ln ratio); higher = more splicing; Tetrahymena group I intron in knt gene, E. coli kanamycin selection, DiMSum; sequences stand for … in CUCUCU…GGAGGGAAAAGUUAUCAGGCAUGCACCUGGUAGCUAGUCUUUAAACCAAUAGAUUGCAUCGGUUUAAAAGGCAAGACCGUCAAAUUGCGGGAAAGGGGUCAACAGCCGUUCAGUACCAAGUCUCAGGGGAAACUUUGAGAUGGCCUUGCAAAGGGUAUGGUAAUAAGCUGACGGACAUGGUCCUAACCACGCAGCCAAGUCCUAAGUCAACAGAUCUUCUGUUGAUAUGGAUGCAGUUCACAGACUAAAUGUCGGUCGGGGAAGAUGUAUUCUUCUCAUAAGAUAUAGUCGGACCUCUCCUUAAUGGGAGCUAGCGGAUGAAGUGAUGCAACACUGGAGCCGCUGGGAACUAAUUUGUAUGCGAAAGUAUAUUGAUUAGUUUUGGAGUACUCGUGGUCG
stated_conditions: 30 °C
Measured self-splicing fitness (ln) of individual entries
# answer = number (no unit)

Here is how some sequences turned out for self-splicing fitness (ln).
seq_string	self-splicing fitness (ln)
UCCGAGCAAUAUUACGUGUG	-3.13
CAAGAGCAAUAUUACGAAGU	-3.86

Query: Given CAUAAGCAAUAUUACGUGCU , state its recorded self-splicing fitness (ln).
Result: -3.19

Query: Now give it for CGAUAGCAAUAUUACGAUGG too.
Result: -0.196

Query: Repeat for the following sequence: UUGUAGCAAUAUUACGUAGG
Result: -2.12

Query: Also need UAGAAGCAAUAUUACGUUAG , thanks.
Result: -2.51

Query: // same read-out, input: AGCGAGCAAUAUUACGCGUU
Result: -3.19

Query: What about this sequence? CGAAAGCAAUAUUACGUAUG
Result: -1.15

Query: UGGCAGCAAUAUUACGAUGC ?
Result: -3.93

Query: Likewise for GAAUAGCAAUAUUACGGCCC ?
Result: -0.303

Query: How about this sequence: GAAGAGCAAUAUUACGACCG
Result: -2.29

Query: Cool, now UAUUAGCAAUAUUACGCACU
Result: -1.04

Query: Also check CACUAGCAAUAUUACGCGCU
Result: -3.62

Query: Let us now turn to GAAGAGCAAUAUUACGGAUA
Result: -2.15

Query: What do you have for CGCGAGCAAUAUUACGAUAG ?
Result: -1.05

Query: Consider next the sequence AGCAAGCAAUAUUACGAAUG in the same way.
Result: -3.77

* * *

assay_procedure: self-splicing fitness, log relative to wild type (ln ratio); higher = more splicing; Tetrahymena group I intron in knt gene, E. coli kanamycin selection, DiMSum; sequences stand for … in CUCUCU…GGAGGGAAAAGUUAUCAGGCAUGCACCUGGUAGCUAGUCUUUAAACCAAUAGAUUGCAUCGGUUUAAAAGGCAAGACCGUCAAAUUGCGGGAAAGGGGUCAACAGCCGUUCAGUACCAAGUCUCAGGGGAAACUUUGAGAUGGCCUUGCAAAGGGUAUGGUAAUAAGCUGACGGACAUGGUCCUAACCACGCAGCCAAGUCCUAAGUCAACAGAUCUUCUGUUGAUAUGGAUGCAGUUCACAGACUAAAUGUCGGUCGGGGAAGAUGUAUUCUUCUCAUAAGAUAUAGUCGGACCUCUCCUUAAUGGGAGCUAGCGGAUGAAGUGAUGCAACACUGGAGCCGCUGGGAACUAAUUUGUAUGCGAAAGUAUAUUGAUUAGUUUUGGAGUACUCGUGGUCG
stated_conditions: 37 °C
In this section, each of the sequences is paired with its reported self-splicing fitness (ln).
Format: numeric value only, no unit, no commentary.

seq_string	self-splicing fitness (ln)
ACGGAGCAAUAUUACGAUUA	-2.23
UUUGAGCAAUAUUACGGGCU	-2.86
CAUAAGCAAUAUUACGCCCU	-2.4
GUAGAGCAAUAUUACGGCGG	-1.99
GCCCAGCAAUAUUACGCCUG	-2.64

Query: I would be grateful if you could share the reported self-splicing fitness (ln) for GAACAGCAAUAUUACGGUCA .
Result: -1.05

Query: Could you do the same for CCGAAGCAAUAUUACGACCG , please?
Result: -0.0137

Query: Another: GUAUAGCAAUAUUACGACGU
Result: 0.436

Query: Now this one: AUCAAGCAAUAUUACGAUCU
Result: -0.575

* * *

assay_procedure: self-splicing fitness, log relative to wild type (ln ratio); higher = more splicing; Tetrahymena group I intron in knt gene, E. coli kanamycin selection, DiMSum; sequences stand for … in CUCUCU…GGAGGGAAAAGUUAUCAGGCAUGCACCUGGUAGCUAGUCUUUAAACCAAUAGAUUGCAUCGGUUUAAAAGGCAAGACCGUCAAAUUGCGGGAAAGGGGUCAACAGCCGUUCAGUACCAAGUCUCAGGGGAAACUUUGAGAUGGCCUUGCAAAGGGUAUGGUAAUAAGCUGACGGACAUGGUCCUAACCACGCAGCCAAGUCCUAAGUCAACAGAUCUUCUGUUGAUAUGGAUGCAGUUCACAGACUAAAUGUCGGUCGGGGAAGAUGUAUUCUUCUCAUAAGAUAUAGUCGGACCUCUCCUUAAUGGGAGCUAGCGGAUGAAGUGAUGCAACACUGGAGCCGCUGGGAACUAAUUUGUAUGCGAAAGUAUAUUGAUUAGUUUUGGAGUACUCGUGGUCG
stated_conditions: 30 °C
# key: entry, value: self-splicing fitness (ln)
Answer with the value's number alone.

seq_string	self-splicing fitness (ln)
AUAGAGCAAUAUUACGACGA	-0.935
UAACAGCAAUAUUACGCCUC	-2.18
UCGGAGCAAUAUUACGGUCC	-2.33
GCUCAGCAAUAUUACGCGCC	-2.16
UGUAAGCAAUAUUACGACUG	-0.779
AGACAGCAAUAUUACGGUCA	-0.457
AUCCAGCAAUAUUACGGAAG	-1.1
GAAAAGCAAUAUUACGCAAG	-2.02
CCCGAGCAAUAUUACGUGGU	-4.96
GCAAAGCAAUAUUACGACUU	-0.0792

// next item, self-splicing fitness (ln) requested
Query: self-splicing fitness (ln); subject: UGUAAGCAAUAUUACGUAGA
Result: -0.696
